# Test system: 786-0
# assay.text: NCI tumour cell line growth inhibition, 48 h
Active and inactive are the calls of the source. No stated cut-off is given here; in the data, active = GI50 up to about 1.1 µM and inactive = higher.
Consider the following molecules; for each one, report its GI50.

GET /value?item= O=C(O)c1cc(=O)c2c(OCC(O)COc3cccc4oc(C(=O)O)cc(=O)c34)cccc2o1 &field=GI50 returns > 100 µM (inactive)

Looking up O=C1/C(=C\c2ccccc2)C2/C(=C\c3ccccc3)C(=O)/C(=C\c3ccccc3)C2/C1=C\c1ccccc1 (stereo not given) , I found its GI50 recorded as 1.22 µM (inactive)

Reported GI50 for O=CC12C3CCC1C2C(=O)C3 (stereo not given) was > 100 µM (inactive)

For record O=C1Nc2ccccc2N/C1=C\C(=O)C(F)F the listed GI50 is > 100 µM (inactive)

Value of measured GI50 for the entry CCOc1ccc(/N=N/C2C(=O)N(C(=O)CC(=O)Nc3ccccc3)N=C2C)cc1 (stereo not given) : > 100 µM (inactive)

---

# Test system: OVCAR-5
# assay.text: NCI tumour cell line growth inhibition, 48 h
The source made the active and inactive calls. Cut-off read from the data, not from the text of the source: active = GI50 up to about 1.1 µM and inactive = higher.
measure: GI50

Bench note, OVCAR-5: entry O=C(NC(Cl)(C(F)(F)F)C(F)(F)F)c1ccc(F)cc1 , its GI50 = > 100 µM (inactive)

Observed GI50 on OVCAR-5, entry COC(=O)c1cc(C#N)[nH]c1-c1cccs1 , equals > 100 µM (inactive)

The compound Cc1nn(C(=O)c2ccncc2)c2c1C(c1ccccc1)SC(=N)N2 (centres undefined) on OVCAR-5: GI50 was > 10 µM (inactive)

Considering N#CC(c1ccccc1)N(CCc1ccccc1)C(=O)Oc1ccccc1 (centres undefined) , its GI50 with OVCAR-5 was recorded as > 100 µM (inactive)

---

# Test system: SNB-19
# assay.text: NCI tumour cell line growth inhibition, 48 h
Activity calls are given as the source filed them. No stated cut-off is given here; in the data, active = GI50 up to about 1.1 µM and inactive = higher.
For each of the compounds below, state its GI50.

// sample CC1(C)N=C(/C(Cl)=[N+](/[O-])C(=O)c2ccc(Cl)cc2)C(C)(C)N1O , its GI50 was > 100 µM (inactive)

Memo: O=C(O)Cn1c(=O)[nH]c(=O)c2c1ncn2Cc1ccccc1 , reported GI50: > 100 µM (inactive)

The compound identified as C/C=C1\CC(C(=O)OCC)CCCCCCCCCCC1=O (centres undefined) registered its GI50 at 69.2 µM (inactive)

Entry under test: Cc1cccc(/C=C2/C(=O)Nc3ccccc32)n1 . Its GI50 was 23.7 µM (inactive)

---

# Test system: SF-539
# assay.text: NCI tumour cell line growth inhibition, 48 h
Active and inactive are the calls of the source. Rule as the data show it: active = GI50 up to about 1.1 µM and inactive = higher.
measure: GI50

Given item COC(=O)C(=O)C(C#N)c1cccc2ccccc12 (centres undefined) , the value recorded as its GI50 is > 100 µM (inactive)

// GI50 value for O=C(O)Cn1c(=O)[nH]c(=O)c2c1ncn2Cc1ccccc1 : > 100 µM (inactive)

Notebook: COc1cc(/N=N\c2cccc(S(=O)(=O)O)c2)ccc1/N=N\c1ccc(/C=C/c2ccc(-n3on3-c3ccc(/C=C/c4ccc(/N=N/c5ccc(/N=N\c6cccc(S(=O)(=O)O)c6)cc5OC)cc4S(=O)(=O)O)c(S(=O)(=O)O)c3)cc2S(=O)(=O)O)c(S(=O)(=O)O)c1 , GI50 read as > 100 µM (inactive)

Lab book: GI50 of CCCCCC(=O)Cc1cc(OC)cc2c1C(=O)Oc1cc(O)c(C(=O)O)c(CC(=O)CCCCC)c1O2 noted as > 10 µM (inactive)
